# Organism: Rattus norvegicus
# measurement_description: Open TG-GATES - Regimen: Single
# Assay type: toxicity, organism-based, Sprague-Dawley
# Design: regimen Single, gender Male, age 6 weeks
# protocol_conditions: in vivo, po, 1000 mg/kg, 9 h, tissue Liver, route gavage, dose level High
Parameter threshold = 8 g. Response is Met when LIVER meets or exceeds it, else Not met.

{"compound": "O=C(O)c1cn(C2CC2)c2cc(N3CCNCC3)c(F)cc2c1=O", "discrete_label": "Not met"}
{"compound": "C[C@H](CS)C(=O)N1CCC[C@H]1C(=O)O", "discrete_label": "Met"}
{"compound": "CCc1cc(C(N)=S)ccn1 [ETHIONAMIDE]", "discrete_label": "Met"}
{"compound": "Clc1ccccc1CN1CCc2sccc2C1", "discrete_label": "Met"}
